Record form. Attribute: solubility. Fill in for each entry.
- protocol: Solubility in water at 37°C
- Type: physicochemical
- measurement_parameters: at 37°C in water
Numbers only, in mg/mL.

- compound: "Nc1ncnc2c1ncn2[C@@H]1C[C@H](CO)[C@@H](O)[C@@H]1O (racemic) [cyclaradine]"
  reported_endpoint: "solubility"
  observed_measurement: 1

Turning now to a further record.
So what's the measured solubility for this one? COCC(=O)OC[C@H]1C[C@@H](n2cnc3c(N)ncnc32)[C@@H](O)[C@@H]1O (racemic) [Compound B]
75

Values compiled from patent EP0042596B1.
